Molecular target: Steroidogenic factor 1 (Homo sapiens)
Assay: SF1 (NR5A1) inverse agonists, counter-screen for LRH-1 inverse agonist project, cell-based, luminescence, high throughput (AID 651614);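 also: cells cotransfected with StAR promoter reporter and SF1 expression vector; 0% = vehicle on cells with receptor and 100% = vehicle on cells lacking receptor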
Conditions: cell-based SF1 luciferase reporter, at 3.6 µM
Calls of active or inactive are those of the source. Rule as the data show it: active = inhibition above about 44%; inactive = the rest.
Outcomes: active, inactive

1) Cc1ccc(N2C(=O)C(Cl)=C(N3CCN(C)CC3)C2=O)c(C)c1 :: inactive
2) COc1ccccc1OCc1nnc(SCC(=O)Nc2ccc(N3CCOCC3)cc2)n1C :: inactive
3) CCCCC(=O)NC(c1ccccc1)c1ccc2cccnc2c1O (stereo unspecified) :: active
4) O=C(Cc1c(F)cccc1Cl)Nc1ccncc1 :: active
5) O=C(Nc1ccc(C(=O)N2CCOCC2)cc1)c1cccc([N+](=O)[O-])c1 :: inactive
6) CC1(C)CC(N2CCN(Cc3ccccc3)CC2)=CC(=[N+]2CCCCC2)C1 :: active
7) COc1cccc(-c2cnc3c(NC(C)=O)cc(-c4ccc(S(C)(=O)=O)cc4)cn23)c1 :: inactive
8) O=C(Nc1nccs1)c1ccc(S(=O)(=O)NCC2CCCCC2)cc1 :: inactive
9) CCOc1ccc(NC(=O)COC(=O)c2ncc(Cl)c(Cl)c2Cl)cc1 :: inactive
10) Cc1nc(N)nc(N)c1/C=C/C(C)(C)c1ccc(Cl)cc1 :: active
11) CCN(CC)CCCNc1nc2ccccc2c2[nH]c3ccc(OC)cc3c12 :: active

---

Test system: transactivating tegument protein VP16 (Human herpesvirus 1), Gal4-VP16 luciferase reporter
Assay: VP16 transactivation inhibitors, counter-screen for SRC3 inhibitor project, cell-based, luminescence, high throughput (AID 588794)
Conditions: mammalian cells, VP16-driven luciferase reporter luminescence; at 3.6 µM
Calls of active or inactive are those of the source. No stated cut-off is given here; in the data, active means inhibition above about 30%; inactive means the rest.
Classes used: 1 for active, -1 for inactive

1. CCCCCCCCCCCCCCCC[n+]1ccccc1 :: -1
2. CC(C)(CC(=O)O)CC(=O)Nc1cc(C(F)(F)F)cc(C(F)(F)F)c1 :: -1
3. CC(=NNC(=O)c1ccncc1)c1ccc2ccccc2c1O :: 1
4. COC(CN(C(=O)CCl)C(C(=O)NC1CCCCC1)c1ccccc1C)OC (configuration not stated) :: -1
5. Cc1ccc(NC2=C(N3CCCCC3)C(=O)c3ccccc3C2=O)cc1 :: -1
6. COC(=O)c1cc(S(=O)(=O)NCCc2ccc(Cl)cc2)c[nH]1 :: -1
7. COc1ccc(-c2cc(=O)oc3cc(OC(=O)C4CCCCC4)c(Cl)cc23)cc1 :: 1
8. O=C(CCc1ccncc1)NC1CCCc2c1cnn2-c1ccc(F)cc1F (configuration not stated) :: -1
9. CC1CCCCN1c1ncnc(N)c1[N+](=O)[O-] (configuration not stated) :: 1
10. Cn1c(=O)c2c(nc(Oc3ccc4ccccc4c3)n2C)n(C)c1=O :: 1
11. COc1ccc(CC2C(=O)NC(C)C(=O)N(C)C3Cc4ccc(cc4)Oc4cc(ccc4O)CC(C(=O)NC(C)C(=O)NC(C)C(=O)N2C)N(C)C3=O)cc1 (configuration not stated) :: 1
12. N#Cc1c(NC(=O)CSc2ncn[nH]2)sc2c1CCCCC2 :: 1
13. O=C1c2ccc3c4c(ccc(c24)C(=O)N1c1cccc(O)c1)C(=O)N(c1cccc(O)c1)C3=O :: 1
14. NC(=S)NN=Cc1nccc2c(N)cccc12 :: -1
15. CCOc1ccc(N2C(=O)/C(=C/c3cc(OC)c(OC)c(OC)c3)N(CC(=O)OC)C2=S)cc1 :: -1
16. CC[n+]1ccccc1/C=C1\Sc2ccc(C)cc2N1C :: 1
17. COc1cc(/C=C/c2cc(C(F)(F)F)[nH]c(=O)n2)cc(OC)c1OC :: 1
18. O=C(Nc1ccc(N2CCN(C(=O)c3ccccc3)CC2)cc1)c1ccc2c(c1)OCO2 :: 1
19. CCOC(=O)c1c(C)n(C)c2ccc(OC)c(NC(=O)c3cccs3)c12 :: 1
20. CCN1/C(=C/c2ccc3ccccc3[n+]2CC)C=Cc2ccccc21 :: 1
21. O=C(C1=C(c2ccccc2)C(=O)c2ccccc2C1=O)c1ccccc1 :: 1
22. CSc1ncccc1C(=O)NCc1nnc2ccccn12 :: -1

Values were extracted from PubChem BioAssay.
